# Tested on: TZM-bl cell line
# Type: cell-based
# measurement_context: human, 1 μM
# Percent Viability @ 1 μM (TZM-bl cells) values compiled below
measurement_label: Percent Viability @ 1 μM (TZM-bl cells) (%)

{"columns": ["compound", "value"],
 "data": [
  ["Oc1c(CC2CCOCC2)c(C2CCOCC2)nn1-c1cc(C(F)(F)F)n[nH]1", 95.3],
  ["O=C(NCC1CC1)c1ccc(-c2nn(-c3nc4ccccc4[nH]3)c(O)c2CCc2ccc(F)cc2)cc1", 95.4],
  ["Oc1c(CCc2ccc(F)cc2)c(CC2CCN(CC(F)(F)F)CC2)nn1-c1nc2ccccc2[nH]1", 101.3],
  ["CC(=O)N1CCC(c2nn(-c3nc4cc(Cl)ccc4[nH]3)c(O)c2CCC2CCOCC2)CC1", 99.2],
  ["CS(=O)(=O)c1ccc(-c2nn(-c3nc4cc(F)ccc4[nH]3)c(O)c2CCC2CCOCC2)cc1", 98.7],
  ["Oc1c(CCN2CCOCC2)c(-c2ccc(C(F)(F)F)cc2)nn1-c1nc2ccccc2[nH]1", 96.4],
  ["O=C(c1cccc(O)n1)N1CCC(Cc2nn(-c3nc4ccccc4[nH]3)c(O)c2CCc2ccc(F)cc2)CC1", 99.5],
  ["Oc1c(CCc2ccc(F)cc2)c(C2CCCO2)nn1-c1nc2ccccc2[nH]1 (centres unmarked)", 99.9],
  ["CN1CCN(CC(=O)N2CCC(c3nn(-c4nc5ccccc5[nH]4)c(O)c3CCc3ccc(F)cc3)CC2)CC1", 102.4],
  ["Oc1c(CCC2CCNCC2)c(C2CC2)nn1-c1nc2cc(Cl)ccc2[nH]1", 95.0],
  ["Oc1c(CCc2ccc(F)cc2)c(C2CCN(CC(F)(F)F)CC2)nn1-c1nc2ccccc2[nH]1", 100.9],
  ["O=C(C1CCC(O)CC1)N1CCC(c2nn(-c3nc4ccccc4[nH]3)c(O)c2CCc2ccc(F)cc2)CC1 (centres unmarked)", 96.9],
  ["Cc1nn(-c2nc3ccccc3[nH]2)c(O)c1Cc1ccc(Cl)cc1F", 101.5],
  ["CC(C)(C)OC(=O)N1CCC(Cc2nn(-c3nc4ccccc4[nH]3)c(O)c2CCc2ccc(F)cc2)CC1", 99.7],
  ["Oc1c(CCc2ccc(F)cc2)c(-c2ccc(C(F)(F)F)cn2)nn1-c1nc2cccnc2[nH]1", 98.9],
  ["O=C(Cc1ccncc1)N1CCCC(c2nn(-c3nc4ccccc4[nH]3)c(O)c2CCc2ccc(F)cc2)C1 (centres unmarked)", 102.8],
  ["Oc1c(CCC2CCOCC2)c(-c2cccc(F)c2)nn1-c1nc2cccnc2[nH]1", 98.7],
  ["CN(C)C(=O)N1CCC(c2nn(-c3nc4ccccc4[nH]3)c(O)c2CCC2CCOCC2)CC1", 100.0],
  ["Oc1c(CCc2ccc(F)cc2)c(-c2cnc(C(F)(F)F)nc2)nn1-c1nc2ccccc2[nH]1", 107.8],
  ["Oc1c(CCc2ccc(F)cc2)c(C2CCOCC2)nn1-c1cc(C(F)(F)F)n[nH]1", 100.7]
]}

---

# target_or_system: HIV-1 NefNL4-3 (Human immunodeficiency virus type 1 group M subtype B, UniProt P03406, A33V/T15A/T51N/V11I)
# test_method_notes: Surface plasmon resonance binding to recombinant full-length Nef (NL4-3)
# measurement_context: Table 4; 2-step induced fit; T = 1/koff2
# T, minutes (residence time) values compiled below
measurement_label: T, minutes (residence time)

{"columns": ["molecule", "measurement_label", "value"],
 "data": [
  ["CC(C)(C)OC(=O)N1CCC(CCc2c(-c3ccc(S(C)(=O)=O)cc3)nn(-c3nc4cc(Cl)ccc4[nH]3)c2O)CC1 [Compound I-215]", "T, minutes (residence time)", "5.87E + 01 minutes"],
  ["Oc1c(CCC2CCOCC2)c(-c2cccc(F)c2)nn1-c1nc2cccnc2[nH]1 [Compound I-304]", "T, minutes (residence time)", "1.25E + 01 minutes"],
  ["CC(C)(C)OC(=O)N1CCC(c2nn(-c3nc4cc(F)c(F)cc4[nH]3)c(O)c2CCc2ccc(F)cc2)CC1 [Compound I-219]", "T, minutes (residence time)", "4.93E + 02 minutes"],
  ["Oc1c(CCc2ccncc2)c(-c2ccc(C(F)(F)F)cc2)nn1-c1nc2ccccc2[nH]1 [Compound I-101]", "T, minutes (residence time)", "7.00E + 04 minutes"],
  ["O=S(=O)(NCc1nn(-c2nc3ccccc3[nH]2)c(O)c1CCc1ccc(F)cc1)c1cccnc1 [Compound I-774]", "T, minutes (residence time)", "1.09E + 02 minutes"],
  ["Cc1ccn(CCc2c(-c3ccc(C(F)(F)F)cc3)nn(-c3nc4ccc(Cl)cc4[nH]3)c2O)n1 [Compound I-163]", "T, minutes (residence time)", "1.44E + 01 minutes"],
  ["CC(C)(C)OC(=O)c1ccc(-c2nn(-c3nc4ccccc4[nH]3)c(O)c2CCc2ccc(F)cc2)cc1 [Compound I-208]", "T, minutes (residence time)", "3.95E- 02 minutes"],
  ["Oc1c(CCc2ccc(F)cc2)c(CNCc2cccnc2)nn1-c1nc2ccccc2[nH]1 [Compound I-811]", "T, minutes (residence time)", "3.83E- 01 minutes"]
]}

---

# target_or_system: HIV-1 NefNL4-3 (Human immunodeficiency virus type 1 group M subtype B, UniProt P03406, A33V/T15A/T51N/V11I)
# test_method_notes: Surface plasmon resonance binding to recombinant full-length Nef (NL4-3)
# measurement_context: response units at 30 μM relative to Nef immobilized on the SPR chip
# RU30/RUNef (extent of binding) values compiled below

{"columns": ["compound", "RU30/RUNef (extent of binding)"],
 "data": [
  ["CC(C)(C)OC(=O)c1ccc(-c2nn(-c3nc4ccccc4[nH]3)c(O)c2CCc2ccc(F)cc2)cc1", "1.63E- 02"],
  ["Oc1c(CCc2ccncc2)c(-c2ccc(C(F)(F)F)cc2)nn1-c1nc2ccccc2[nH]1", "1.33E- 02"],
  ["O=C(OCc1ccccc1)N1CCCC(c2nn(-c3nc4ccccc4[nH]3)c(O)c2CCc2ccc(F)cc2)C1 (stereo not shown)", "1.74E- 02"],
  ["CC(C)(C)OC(=O)N1CCC(c2nn(-c3nc4ccc(Cl)cc4[nH]3)c(O)c2CCc2ccc(F)cc2)CC1", "1.60E- 02"],
  ["Oc1c(CCc2ccc(F)cc2)c(-c2ccc(C(F)(F)F)cc2)nn1-c1cc(C(F)(F)F)n[nH]1", "4.19E- 02"],
  ["O=C(C1CC1)N1CCC(CCc2c(C3CC3)nn(-c3nc4cc(Cl)ccc4[nH]3)c2O)CC1", "1.96E- 02"],
  ["Oc1c(CCc2ccc(F)cc2)c(-c2ccc(C(F)(F)F)cc2)nn1-c1nc2ccc(Cl)cc2[nH]1", "1.44E- 02"]
]}

---

# T, minutes (residence time) values compiled below
# target_or_system: HIV-1 NefNL4-3 (Human immunodeficiency virus type 1 group M subtype B, UniProt P03406, A33V/T15A/T51N/V11I)
# test_method_notes: Surface plasmon resonance binding to recombinant full-length Nef (NL4-3)
# measurement_context: Table 4; 1:1 Langmuir fit; T = 1/koff

{"columns": ["molecular_string", "value_unit", "T, minutes (residence time)"],
 "data": [
  ["CS(=O)(=O)c1cccc(-c2nn(-c3nc4cccnc4[nH]3)c(O)c2CCC2CCOCC2)c1", "E + 01 minutes", 1.13],
  ["Oc1c(CCc2ccc(F)cc2)c(C2CCOCC2)nn1-c1nc2cccnc2[nH]1", "E + 01 minutes", 1.79]
]}

---

# target_or_system: HIV-1 NefNL4-3 (Human immunodeficiency virus type 1 group M subtype B, UniProt P03406, A33V/T15A/T51N/V11I)
# test_method_notes: Surface plasmon resonance binding to recombinant full-length Nef (NL4-3)
# measurement_context: KD, M, Table 4; SPR fit 2-step induced fit, KD = koff/kon × koff2/(koff2 + kon2)
pKd: −log10 of the molar value.
measurement_label: pKd

{"columns": ["molecular_string", "measurement_label", "value"],
 "data": [
  ["CC(C)OC(=O)N1CCC(c2nn(-c3nc4cc(Cl)ccc4[nH]3)c(O)c2CCC2CCOCC2)CC1", "pKd", 5.54],
  ["CC(C)(C)OC(=O)N1CCC(c2nn(-c3nc4cccnc4[nH]3)c(O)c2CCc2ccc(F)cc2)CC1", "pKd", 5.40],
  ["Oc1c(CC2CCOCC2)c(-c2ccc(F)cc2)nn1-c1nc2cc(F)ccc2[nH]1", "pKd", 9.46],
  ["Oc1c(CCc2ccc(F)cc2)c(-c2ccc(F)cc2)nn1-c1nc2cc(Cl)ccc2[nH]1", "pKd", 7.16]
]}
